Quick reference: TGI of the listed items.
# Test system: HOP-92 NSCLC
# ASSAY PROTOCOL: NCI tumour cell line growth inhibition, 48 h

Here are 4 compounds together with their reported answers.
COMPOUND	TARGET OR TEST SYSTEM	OBSERVABLE	ASSAY RESULT
CC(C(N)=O)N(C)C(=O)c1cnc2ccccc2c1 (stereo not given)	HOP-92 NSCLC	TGI	> 100 µM
COC1CC(OC2C(C)OC(OC3C(C)OC(OC4C(C)OC(O[C@H]5CC[C@@]6(C)C(=CC[C@]7(O)[C@@H]6C[C@@H](O)[C@@]6(C)[C@]7(O)CC[C@@]6(O)C(C)=O)C5)CC4OC)CC3OC)CC2OC)OC(C)C1O (stereo not given in full)	HOP-92 NSCLC	TGI	> 12.5 µM
O=C1CCC(=O)c2sccc2N1	HOP-92 NSCLC	TGI	> 100 µM
O=c1[nH]nc(-c2ccccc2)n1-n1cnnc1	HOP-92 NSCLC	TGI	> 100 µM

// switching to the query compound
query: Identify measured TGI associated with COC(=O)C(C(=O)C(N)=O)c1csc(-n2nc(-c3ccccc3)cc2-c2ccccc2)n1 (stereo not given)
result: > 100 µM

---

# Test system: UACC-257 melanoma
# ASSAY PROTOCOL: NCI tumour cell line growth inhibition, 48 h
Quick reference: TGI of the listed items.

Here are 2 compounds together with their reported answers.
In [3]: df
Out[3]:
                                   compound  observable  assay_result
0  COc1ccc(C)cc1C1CCC(=O)O1 (stereo unspecified)         TGI      > 100 µM
1  Cc1cc2nc3c4ccc(Br)cc4n(CCN(C)C)c3nc2cc1C         TGI       3.91 µM

query: Identify measured TGI associated with COc1cc(/C=N/NC2=NCCN2)ccc1O
result: > 100 µM

query: Identify measured TGI associated with COC(=O)C(C(=O)C(N)=O)c1csc(-n2nc(-c3ccccc3)cc2-c2ccccc2)n1 (stereo unspecified)
result: > 31.6 µM

query: Identify measured TGI associated with COc1cccc2c1cc1c3c(cc4c(c32)OCO4)C(=O)N1
result: > 100 µM

query: Identify measured TGI associated with O=C(Nc1cccc(C(F)(F)F)c1)c1cc2ccccc2cc1O
result: > 24.7 µM

Cited source for all entries: PubChem BioAssay (NCI)
